Listed below: IC50 at 72 h values for each entry.
# assay-overview: Cytotoxicity against african green monkey Vero cells incubated for 72 hrs by Sulphorhodamine assay
# Assay type: toxicity, cell-based
# study-conditions: African green monkey (Chlorocebus sabaeus)

Known results for molecules:
| molecule | IC50 at 72 h |
| --- | --- |
| COc1ccc2c(c1)CC(Cc1ccc(CCC(=O)NO)cc1)C2=O (stereo not given) | 114 µM |
| COc1cc2c(cc1OC)C(=O)C(Cc1ccc(C(=O)NO)cc1)C2 (stereo not given) | 193 µM |
| COc1cc(C2/C(=C/c3ccc(OCCCC(=O)NO)cc3)C(=O)c3cc(OC)c(OC)c(OC)c32)cc(OC)c1OC (stereo not given) | 47.2 µM |
| COc1cc2c(cc1OC)C(=O)/C(=C\c1ccc(C(=O)NO)cc1)C2 | 88.4 µM |

// moving on: another record for IC50 at 72 h
The reported value for COc1cc(C2c3c(cc(OC)c(OC)c3OC)C(=O)C2Cc2ccc(CCC(=O)NO)cc2)cc(OC)c1OC (stereo not given) in terms of IC50 at 72 h is 76.2 µM
